Please respond with reported IC50 for every item in the list.
Target: human P2X3 receptor (Homo sapiens, UniProt P56373)
Construct: expressed in transfected cells; host or cells: CHO-K1
Sequence (P56373 whole entry): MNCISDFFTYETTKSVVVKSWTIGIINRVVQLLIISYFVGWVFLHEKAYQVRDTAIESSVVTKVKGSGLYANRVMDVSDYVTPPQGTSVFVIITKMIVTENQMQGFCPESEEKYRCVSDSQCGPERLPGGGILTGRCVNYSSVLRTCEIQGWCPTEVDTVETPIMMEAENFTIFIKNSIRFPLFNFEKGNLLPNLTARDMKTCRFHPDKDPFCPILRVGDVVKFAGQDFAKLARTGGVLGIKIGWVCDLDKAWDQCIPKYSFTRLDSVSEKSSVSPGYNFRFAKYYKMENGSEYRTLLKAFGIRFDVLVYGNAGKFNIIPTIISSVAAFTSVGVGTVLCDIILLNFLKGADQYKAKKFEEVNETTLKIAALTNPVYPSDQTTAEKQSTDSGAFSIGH
Test: Calcium luminescence (photoprotein) assay in CHO-K1 cells co-expressing human P2X3 receptor, α,β-Met-ATP stimulation, FLEXSTATION readout
Assay type: cell-based
Details: Table 7; human P2X3 receptor antagonist activity, CHO-K1 cells, α,β-Met-ATP; read-out: h-P2X3 IC50
Give bare numbers, in nM.

Examples with answers:
> print(dat)
                                   molecule  readout.unit  endpoint.value
1  COc1ccc(Cn2c(=O)n3c(C)c(C(C)C)nc3c3ncc(N4CCOCC4)cc32)cc1 [Example 89]            nM             575
2  COc1cc(Cn2c(=O)n3c(C)c(C(C)C)nc3c3ncc(N4CCOCC4)cc32)cc(OC)c1 [Example 79]            nM            53.7
3  CCc1nc2c3ncc(NCC4COC4)cc3n(Cc3cc(OC)cc(OC)c3)c(=O)n2c1C [Example 76]            nM             381
4  Cc1c(C(C)C)nc2c3ncc(C(=O)N4CCC(O)CC4)cc3n(Cc3ccc(Cl)cc3)c(=O)n12 [Example 94]            nM            8260
5  Cc1ncccc1Cc1nnc2c3ncc(N4CCOCC4)cc3n(Cc3ccc(Cl)cc3)c(=O)n12 [Example 106]            nM            40.6

Respectfully, I request IC50 for each entry included below.
1. O=c1n(Cc2ccc(Cl)cc2)c2cc(N3CCOCC3)cnc2c2nnc(Cc3cccnc3O)n12 [Example 105]
2. Cc1ccc(Cn2c(=O)n3cc(CC(C)C)nc3c3ncccc32)cc1 [Example 72]
3. COc1cc(Cn2c(=O)n3c(C)c(C)nc3c3ncc(NCC4COC4)cc32)cc(OC)c1 [Example 70]
4. COc1cc(Cn2c(=O)n3c(C)c(C(C)C)nc3c3ncc(N4CCN(C(C)=O)CC4)cc32)cc(OC)c1 [Example 84]
5. COc1ccc(Cn2c(=O)n3c(COC4CCOCC4)nnc3c3ncc(N4CCOCC4)cc32)cc1 [Example 98]

Reply text:
1: 655; 2: 1390; 3: 139; 4: 259; 5: 897
